Tested on: IRF3 activation in PD-L1 high HEK293T STING reporter cell line
assay.explanation: IRF3 activation in HEK293T STING reporter cells, high PD-L1
Format: cell-based, human
setup.conditions: high PD-L1 cells, 20 hours; read-out: IRF Activation EC50 (nM), High PD-L1
test.readout: EC50

What EC50 appears in the records for this compound with IRF3 activation in PD-L1 high HEK293T STING reporter cell line? `CCn1nc(C)cc1C(=O)Nc1nc2cc(C(N)=O)cc(OCCCNC(=O)CCNC(=O)OCc3ccc(NC(=O)[C@H](CCCNC(N)=O)NC(=O)[C@@H](NC(=O)Cn4cc(CCNC(=O)[C@H](CC(=O)O)NC(=O)[C@H](CC(=O)O)NC(=O)[C@H](CCCNC(=N)N)NC(=O)[C@H](CC(=O)O)NC(=O)CCCN5CCc6c(nc(C(=O)Nc7cccc(-c8cccc(NC(=O)c9nc%10c(n9C)CCN(CCCC(=O)O)C%10)c8Cl)c7Cl)n6C)C5)nn4)C(C)C)cc3)c2n1C/C=C/Cn1c2nc(-c3cc(C)nn3CC)ncc2c2cc(C(N)=O)cc(OC)c21`
< 50 nM
